Test system: NCI-H727
method_notes: relative viability (nuclei count vs DMSO), 5 days (fraction); higher = more cells survive
condition: first compound 0.5 µM
property: relative viability
Output spec: single numeric token, no unit.

Guide cases for relative viability, answers given:
| compound | relative viability |
| --- | --- |
| CC1(C)CCC(c2ccc(Cl)cc2)=C(CN2CCN(c3ccc(C(=O)NS(=O)(=O)c4ccc(N[C@H](CCN5CCOCC5)CSc5ccccc5)c(S(=O)(=O)C(F)(F)F)c4)cc3)CC2)C1 [Navitoclax] + CC(=O)c1c(C)c2cnc(Nc3ccc(N4CCNCC4)cn3)nc2n(C2CCCC2)c1=O [Palbociclib] (partner 0.5 µM) | 0.527 |
| CC1(C)CCC(c2ccc(Cl)cc2)=C(CN2CCN(c3ccc(C(=O)NS(=O)(=O)c4ccc(N[C@H](CCN5CCOCC5)CSc5ccccc5)c(S(=O)(=O)C(F)(F)F)c4)cc3)CC2)C1 [Navitoclax] + O=C(c1cc(Cc2n[nH]c(=O)c3ccccc23)ccc1F)N1CCN(C(=O)C2CC2)CC1 [Olaparib] (partner 8 µM) | 0.721 |

Q) Reported relative viability for NCI-H727, given CC1(C)CCC(c2ccc(Cl)cc2)=C(CN2CCN(c3ccc(C(=O)NS(=O)(=O)c4ccc(N[C@H](CCN5CCOCC5)CSc5ccccc5)c(S(=O)(=O)C(F)(F)F)c4)cc3)CC2)C1 [Navitoclax] + CCNC(=O)c1noc(-c2cc(C(C)C)c(O)cc2O)c1-c1ccc(CN2CCOCC2)cc1 [Luminespib] (partner 0.01 µM) ?
A) 0.28

* * *

Tested on: NCI-H441
method_notes: relative viability (nuclei count vs DMSO), 5 days (fraction); higher = more cells survive
condition: first compound 2.53 µM
Threshold-based label: relative viability under 0.5 gives 1.0, relative viability not under 0.5 gives 0.0.

Sample answers from the record:
| compound | cat |
| --- | --- |
| Oc1nc(-c2ccc(C(F)(F)F)cc2)nc2c1CSCC2 [XAV939] + C[C@@H](Oc1cc(-c2cnn(C3CCNCC3)c2)cnc1N)c1c(Cl)ccc(F)c1Cl [Crizotinib] (partner 1 µM) | 0.0 |
| C=C1C(=O)O[C@@H](CCCCCCCC)[C@@H]1C(=O)O [C-75] + C[C@]1(O)C[C@@H](c2nc(-c3ccc4ccc(-c5ccccc5)nc4c3)c3c(N)nccn32)C1 [Linsitinib] (partner 1 µM) | 1.0 |
| C=C1C(=O)O[C@@H](CCCCCCCC)[C@@H]1C(=O)O [C-75] + COc1cccc2cc(-c3nc([C@H]4CC[C@H](C(=O)O)CC4)n4ncnc(N)c34)[nH]c12 [OSI-027] (partner 0.5 µM) | 1.0 |
| Oc1nc(-c2ccc(C(F)(F)F)cc2)nc2c1CSCC2 [XAV939] + N=C(N)NC(=N)NCCc1ccccc1 [Phenformin] (partner 250 µM) | 0.0 |
| Oc1nc(-c2ccc(C(F)(F)F)cc2)nc2c1CSCC2 [XAV939] + NC(=O)Nc1cc(-c2cccc(F)c2)sc1C(=O)N[C@H]1CCCNC1 [AZD7762] (partner 0.2 µM) | 0.0 |
| Oc1nc(-c2ccc(C(F)(F)F)cc2)nc2c1CSCC2 [XAV939] + Cc1nc(NC(=O)N2CCC[C@H]2C(N)=O)sc1-c1ccnc(C(C)(C)C(F)(F)F)c1 [Alpelisib] (partner 2 µM) | 0.0 |

Consider now this further compound.
Q) Is the reported relative viability for Oc1nc(-c2ccc(C(F)(F)F)cc2)nc2c1CSCC2 [XAV939] + Nc1ncn([C@H]2C[C@H](O)[C@@H](CO)O2)c(=O)n1 [Decitabine] (partner 2 µM) strictly below 0.5?
A) 1.0
